System: HOP-62 NSCLC
Assay: NCI-60 one-dose screen, 48 h
Settings: 10 µM unless noted
Compounds without any hit were thinned out: in the full panel of roughly 83,000, 20% have a hit. Active and inactive are the calls of the source. The calls were made as follows: active = growth percent below 10; inactive = the rest.
Return exactly one item of active, inactive

The examples below pair each entry with its known result.
{"Compound": "CSc1ccc(C(=O)Nc2ccc3nn(/C(C#N)=C/c4ccccn4)nc3c2)cc1", "Class": "active"}
{"Compound": "COc1cc(C2CC(c3cc(OC)c(OC)c(OC)c3)=Nc3c(N)nc(N)nc3N2)ccc1Oc1nc(NCCO)nc(N2CCOCC2)n1 (stereo unspecified)", "Class": "inactive"}

# outcome recorded in this test, key = `Cn1cc(-c2cc(N)n3nc(-c4c[nH]c5ccccc45)cc3n2)c2cc(Br)cnc21`
active

# outcome recorded in this test, key = `N#Cc1c(-c2ccc(Cl)cc2)nc2n[nH]c(-c3ccc(Cl)cc3)c2c1-c1ccc(C(F)(F)F)cc1`
active

# outcome recorded in this test, key = CC1=C(C(=O)OC(C)C)C(c2cccc(O)c2)NC(=S)N1 (stereo unspecified)
inactive

# outcome recorded in this test, key = Cc1ccc(C2=NN(c3nc(-c4cc5ccccc5oc4=O)cs3)C(c3ccc(C)cc3)C2)cc1 (stereo unspecified)
inactive

# outcome recorded in this test, key = `NS(=O)(=O)c1ccc(CCNC(=O)CSc2ccc(-c3ccc(Br)cc3)nn2)cc1`
inactive
